B1: CPEB3 Ribozyme (parent)
chain: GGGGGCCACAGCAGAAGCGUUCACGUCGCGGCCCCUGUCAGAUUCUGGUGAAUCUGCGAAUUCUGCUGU

- Variants of: B1
- method: self-cleavage, relative activity (ratio to wild type); higher = more cleavage; co-transcriptional

{"columns": ["variant", "self-cleavage"],
 "data": [
  ["G4A G28C", 0.162],
  ["G11U C34G", 0.635],
  ["G47A U55G", 0.91],
  ["U20G G31C", 0.134],
  ["A13C C57A", 0.276],
  ["A40U G68U", 0.877],
  ["A15C A40C", 0.137],
  ["G41C A60U", 0.366],
  ["U21C G28U", 0.105],
  ["C45A U46G", 0.917],
  ["G30A C39U", 0.598],
  ["U26A A59U", 0.404],
  ["C6U C35A", 0.189],
  ["G37U G41A", 0.244],
  ["G25C U53G", 0.106],
  ["G2A U46G", 0.135],
  ["C22A C45G", 0.194],
  ["G56C C66A", 0.39],
  ["U44A C45U", 0.965],
  ["C34U U62A", 0.921],
  ["A52G A60C", 0.336],
  ["C45G A60G", 0.897],
  ["U53A U62C", 0.634],
  ["G31A C33U", 0.587],
  ["A15G U67A", 0.971],
  ["G11A C22U", 0.191],
  ["A23G U26A", 0.773],
  ["U20G G41A", 0.127],
  ["C7U G65A", 0.781],
  ["C22G A42G", 0.132],
  ["A40C U69C", 0.965],
  ["C6U G11C", 0.828],
  ["A13U G41C", 0.247],
  ["G4A U43A", 0.683],
  ["G19U C57U", 0.21],
  ["G17A G65A", 0.203],
  ["U20C A40G", 0.212],
  ["C12G C18G", 0.0782],
  ["C6U U62A", 0.873],
  ["U44A U55C", 0.496],
  ["C12U A13G", 0.793],
  ["G25C C45G", 0.147],
  ["U36A G58U", 0.253],
  ["G56A U61A", 0.824],
  ["U46C C66G", 0.762],
  ["C24U C66U", 0.734]
]}
